Measured values drawn from ChEMBL document CHEMBL4513216 for this set.

# experiment: Toxicity liver stage against HepG2, at 10uM
# Type: cell-based
# Design: test concentration 10 uM, cell line HepG2-A16-CD81EGFP
# measurement.context: human, HepG2-A16-CD81EGFP cells; read-out: INHIBITION
cytotoxicity at 10 µM listing for selected compounds.
Provide only the numeric value, understood in %.

* CN(Cc1ccc(Cl)cc1)C(=O)Nc1cnn(CC(N)=O)c1 | -17.6
* Cc1ccc(N2CC[C@H](OCC3CC3)[C@@H]2Cc2cccnc2)nn1 | 1.13
* COCCN(Cc1ccccn1)Cc1sccc1C | -3.6
* CC(C)=CCN1C[C@@H]2CC[C@H]1CN(C(=O)c1ccc3nc[nH]c3c1)C2 | -1.31
* Cc1ccc(C)c(OC(C)C(=O)NCc2cccnc2)c1 (stereo not drawn) | 2.13

Tell me cytotoxicity at 10 µM reported for CCc1cc(C(=O)NCC2CCN(Cc3cccc(C)n3)C2)on1 (stereo not drawn)
7.69

Tell me cytotoxicity at 10 µM reported for CCC(=O)NC(c1cccnc1)c1cc(C)ccc1C (stereo not drawn)
-2.8

Tell me cytotoxicity at 10 µM reported for `N#Cc1cccc(NC(=O)N[C@H](CO)c2ccccc2)c1`
-12.2

Tell me cytotoxicity at 10 µM reported for `CCOc1ccccc1N(C)C(=O)c1ccc(Cl)cn1`
0.0381

Tell me cytotoxicity at 10 µM reported for `CCCc1cc(C(=O)N2CCCN(c3cccnn3)CC2)[nH]n1`
-1.16

Tell me cytotoxicity at 10 µM reported for `CCn1ccnc1C1CCN(C(=O)Nc2ccc(OC)cc2)CC1`
-1.77

Tell me cytotoxicity at 10 µM reported for `CCn1cnnc1C1CCN(C(=O)c2cc(F)ccc2OC)CC1`
-3.35

Tell me cytotoxicity at 10 µM reported for O=C(NC1CCCN(c2ccccc2Cl)C1)c1nc(=O)[nH][nH]1 (stereo not drawn)
-10.9

Tell me cytotoxicity at 10 µM reported for `c1cncc(COCc2cncc3c2CCN(Cc2ccoc2)C3)c1`
-109

Tell me cytotoxicity at 10 µM reported for `CN(C)C(=O)c1cccc(CCNS(=O)(=O)c2ccccc2)c1`
-4.12

---

# experiment: Toxicity liver stage against HepG2, at 10uM
# Format: cell-based
# Design: test concentration 10 uM, cell line HepG2-A16-CD81EGFP
# measurement.context: human, HepG2-A16-CD81EGFP cells; read-out: INHIBITION
cytotoxicity at 10 µM listing for selected compounds.
Provide only the numeric value, understood in %.

Example entries begin here.
* Cc1nc(-c2ccccc2)n(CC(=O)NC(C)C2CC2)n1 (stereo not drawn) | 7.44
* CCc1nc(C2CCCN2c2ncc(Br)cn2)no1 (stereo not drawn) | -0.36
* CC(Cn1cncn1)NCc1n[nH]c2c1CCCCC2 (stereo not drawn) | -4.39

Tell me cytotoxicity at 10 µM reported for `CN1CCO[C@H]2CN(S(=O)(=O)c3ccc(C#N)cc3)C[C@H]21`
7.25

Tell me cytotoxicity at 10 µM reported for Cc1ccsc1C(=O)NC1CCN(c2cnn(C)c2)C1=O (stereo not drawn)
-7.11

Tell me cytotoxicity at 10 µM reported for `O=S(=O)(c1c(F)cccc1F)N1CCC(Cn2cccn2)CC1`
-11.9

Tell me cytotoxicity at 10 µM reported for `Cc1ccc(-c2nc(C(=O)N(C)CC(=O)N(C)C)cs2)c(C)c1`
-10.1

Tell me cytotoxicity at 10 µM reported for CN(Cc1ccc(F)cc1)CC1(O)CCN(C(=O)c2ccsc2)C1 (stereo not drawn)
-28.2
